Here, each record is paired with measured Retention_time data.
assay: Lipophilicity of the compound assessed as retention time by HPLC method; type: physicochemical
Reported Property: Retention_time

Compound | Reported Property | Result
COc1cccc(C(=N)Nc2cc(C(=O)Nc3cc(C(=O)Nc4cc(C(=O)NCCCN(C)C)n(CCC(C)C)c4)n(C)c3)n(C)c2)c1 | Retention_time | 23.8 min
CC(C)CCn1cc(NC(=O)c2cc(NC(=O)c3cc(NC(=N)c4ccccc4)cn3C)cn2C)cc1C(=O)NCCCN(C)C | Retention_time | 22.6 min
COc1cccc(C(=N)Nc2cc(C(=O)Nc3cc(C(=O)Nc4cc(C(=O)NCCCN(C)C)n(C)c4)n(C)c3)n(C)c2)c1 | Retention_time | 17.5 min
CC(C)CCc1sc(NC(=O)c2cc(NC(=O)c3cc(NC(=N)c4cnc5ccccc5c4)cn3C)cn2C)nc1C(=O)NCCCN(C)C | Retention_time | 27.3 min
CN(C)CCCNC(=O)c1cc(NC(=O)c2cc(NC(=O)c3cc(NC(=N)N)cn3C)cn2C)cn1C | Retention_time | 14.2 min
CC(=O)Nc1cc(C(=O)Nc2cc(C(=O)Nc3nc(C(=O)NCCCN(C)C)c(CCC(C)C)s3)n(C)c2)n(C)c1 | Retention_time | 27.1 min
CN(C)CCCNC(=O)c1cc(NC(=O)c2cc(NC(=O)c3cc(NC(=N)c4cnc5ccccc5c4)cn3C)cn2C)cn1C | Retention_time | 19.7 min
